Give hAM1R EC50 (cAMP) for every item shown.
target: hAM1R (human, UniProt Q16602); assay: cell-based or functional assay
Numbered stars: 1 amine (or outer) side, 2 acyl side, 3 side chain; on linkers, the order of the positions; unused ones are H or OH. Bridge positions count the residues as written; N and C are the ends. Square brackets hold non-standard residues; d marks the D form. Ends that are not written are not given here. * marks the point of attachment. C20 diacid = O=C(O)CCCCCCCCCCCCCCCCCCC(=O)*; γGlu = O=C(O)[C@H](CCC(=O)[*:2])N[*:1]; Hyp = O=C(O)[C@@H]1C[C@@H](O)CN1; NMeI = CC[C@H](C)[C@H](NC)C(=O)O; Cit = NC(=O)NCCC[C@H](N)C(=O)O; Sar = CNCC(=O)O
State the answer as a number, implicitly in nM.

Data request: Given the binder KCNTATCTVQ[Cit]LAAQIYQFTDKDKDNVAPPTNVGSNG[Hyp]-NH2 (disulfide 2-7 (inferred); ends not checked) [SEQ ID NO: 243] , what is its reported hAM1R EC50 (cAMP)?
Data returned: 3340

Data request: Requested read-out: hAM1R EC50 (cAMP). Entry: {C20 diacid-γGlu}-GCRFGTCTVQRLAHFLYQFTDKDKDNVAPRTKIGPQGY-NH2 (disulfide 2-7 (inferred); ends not checked) [SEQ ID NO: 390]
Data returned: 0.889

Data request: What does the data say about its hAM1R EC50 (cAMP)? Entry: {C20 diacid-γGlu}-RCQTATCATERLAHFLQRSSF[Sar]A[NMeI]LSSTEVGSNT[Hyp]-NH2 (disulfide 2-7 (inferred); not fully specified; ends not checked) [SEQ ID NO: 80]
Data returned: 44.3

Data request: What value of hAM1R EC50 (cAMP) has been reported for the following binder? GCRFGTCTVQRLAHQIYQFTDKDKDNVAPRTNVSPQGY [SEQ ID NO: 116]
Data returned: 48.2

Data request: Param item = GCRTGTCTVQRLAHQIYQFTDKDKDNVAPRSKVGPQGY [SEQ ID NO: 129] ; retrieve measured hAM1R EC50 (cAMP).
Data returned: 367

Data request: Param item = GCRFGTCTVQRLAHQIYQFTDKDKDNVAPRSNVGPQGY [SEQ ID NO: 374] ; retrieve measured hAM1R EC50 (cAMP).
Data returned: 12

Data request: Record request: hAM1R EC50 (cAMP) value, item GCRTGTCTVQRLAHQIYQFTDKDKDNVAPRSNVSPNGY [SEQ ID NO: 172]
Data returned: 2980

Data request: Can you look up the measured hAM1R EC50 (cAMP) of GCRFGTCTVQRLAHQIYQFTDKDKDNVAPRSNVGPQG[Hyp]-NH2 (disulfide 2-7 (inferred); ends not checked) [SEQ ID NO: 135] for me?
Data returned: 68.4

Data request: Param item = KCNFATCTVQRLAHQIYQFTDKDKDNVAPRTKVGSNGY [SEQ ID NO: 361] ; retrieve measured hAM1R EC50 (cAMP).
Data returned: 0.913

Data request: Tell me the measured hAM1R EC50 (cAMP) of {C20 diacid-γGlu}-KCNTATCTVQRLAYQIYQFTDKDKDNVAPPTNVGSNG[Hyp]-NH2 (disulfide 2-7 (inferred); ends not checked) [SEQ ID NO: 47] , please.
Data returned: 500
